The following compounds are listed with their measured pKd values.
biological target: HIV reverse transcriptase (RT) (Human immunodeficiency virus type 1 group M subtype B, UniProt P04585); test: Pre-steady-state determination of KD and kpol; format: biochemical, HIV-1; conditions: Kd (equilibrium dissociation constant), 0.5 mM Mg2+, curve fit ± standard error
pKd: −log10 of the molar value.

| COMPOUND | pKd |
| --- | --- |
| Cc1cn([C@H]2C[C@H](O)[C@@H](CO[P@](=O)(O)O[P@@](=O)(O)OP(=O)(O)O)O2)c(=O)[nH]c1=O [dTTP, Deoxythymidine triphosphate] | 5.48 |
| Cc1cn([C@H]2C[C@H](N=[N+]=[N-])[C@@H](CO[P@](=O)(O)O[P@](=O)(O)OP(=O)(O)O)O2)c(=O)[nH]c1=O | 5.26 |

Ref: paper PMC8190884
